Test system: HOP-62 NSCLC
Experiment: NCI tumour cell line growth inhibition, 48 h; in the data active = GI50 below about 0.43 µM; inactive = the rest
Possible outcomes: label 1 = active, label 0 = inactive

- Cc1cc(S(N)(=O)=O)c(S/C(=N\NS(=O)(=O)c2ccc(Cl)cc2)c2ccc(Cl)cc2)cc1Cl: label 0
- CC1SC(c2cccs2)N(NC(=O)C(O)c2ccccc2)C1=O (stereo not given): label 0
- Cn1c(=O)c(Cc2ccc(F)cc2F)cc2cnc(NC3CCOCC3)nc21: label 0
- N#C/C(=C/N1CCN(C(=O)c2ccco2)C1=S)C(N)=O: label 0
- COc1ccc(/C=C(/C(=O)N2CCNCC2)c2cc(OC)c(OC)c(OC)c2)cc1O: label 0
- O=C1NC(=NCc2ccccn2)S/C1=C\c1ccc2ncccc2c1: label 0
- COc1cccc2c1C(=O)c1c(O)c3c(c(O)c1C2=O)C[C@@](O)(C(C)=O)C[C@@H]3OC1CC(N)C(O)C(C)O1 (stereo not given in full): label 1
- COC(=O)c1c(-c2ccccc2)csc1NC(=O)c1c(-c2ccccc2)noc1C: label 0
- CCCCCCCCSC1=CC(=O)C(OC)=C(OC)C1=O: label 0
- Cc1ccc(Cl)cc1Nc1nc(C(F)(F)F)ccc1C(=O)Oc1ccc(Cl)cc1: label 0
- COc1cc(/C=C/C(=O)c2ccc(Nc3nc(Nc4ccc(F)cc4)nc(Nc4ccc(F)cc4)n3)cc2)cc(OC)c1OC: label 0
- COc1cc2c(/C=C3\C(=O)Nc4ccc(Br)cc43)c(Cl)n(C)c2cc1C: label 0
- CC(=O)OC1CC2(O)C(CCC3(C)C(c4ccc(=O)oc4)CCC32O)C2(C)CCC(O)C=C12 (stereo not given): label 1
- CO/N=C1/c2cc(OC)ccc2-c2c(NOC)nc3ccccc3c21: label 0
- CC(C)[C@]12O[C@H]1[C@@H]1O[C@]13[C@]1(O[C@H]1C[C@H]1c4c(C(=O)c5ccccc5)oc(OC(=O)c5ccccc5)c4CC[C@@]13C)[C@@H]2O: label 1
- O=C1c2cccc3cccc(c23)C(=O)N1CCCCOc1ccc(-c2nc3ccc(N4CCOCC4)cc3[nH]2)cc1: label 0
- CSC(=S)N/N=C(\C)c1ccccn1: label 1
- COc1ccc(C2CC(c3cc(OC)c(OC)c(OC)c3)=NN2)cc1 (stereo not given): label 0
- N#Cc1c2ccccc2c2nnc3cc(Cl)c(Cl)cc3n12: label 0
- C[n+]1c2ccccc2c(NC2CCNCC2)c2[nH]c3ccccc3c21: label 0

====

Parameter GI50: see the listing below.
Tested on: IGROV1 ovarian
Experiment: NCI tumour cell line growth inhibition, 48 h
MEASURED_QUANTITY: GI50

* N#Cc1c2ccccc2c2nnc3cc(Cl)c(Cl)cc3n12 | 44.5 µM
* O=C1NC(=NCc2ccccn2)S/C1=C\c1ccc2ncccc2c1 | 17.8 µM
* COC(=O)c1oc2c(C(=O)/C=C/c3ccc(OC)cc3)c(OCCCN3CCCCC3)ccc2c1C | 0.782 µM
* CN(C)CCn1cc(-c2ccc3c(Nc4ccc(CC(=O)Nc5cccc(F)c5)cc4)ncnc3c2)cn1 | 2.01 µM
* Nc1nc(Cl)nc2c1ncn2C1O[C@H](CO)[C@@H](O)[C@@H]1F (stereo not given in full) | > 73.5 µM
* CN(C)/[N+]([O-])=N/Oc1cc(Nc2ccc(C(=O)O)cc2)c([N+](=O)[O-])cc1[N+](=O)[O-] | 14.9 µM
* Cc1nc2cc(O)c(O)cc2cc1Oc1ccc(NC(=O)Nc2ccc(Cl)c(Cl)c2)cc1 | 12.3 µM
* COC(=O)c1ccc2c(c1)nc(-c1ccc(Cl)cc1)n2-c1cc(C(C)(C)C)[nH]n1 | 3.64 µM
* CCOc1ccc2c(c1)/C(=C\C=C\C1CC(C)C3CC(OCC)CCC3N1CC)CC(C)N2CC (stereo not given) | 1.11 µM
* O=C1NC(=NCCc2ccccc2Cl)S/C1=C\c1ccc2ncccc2c1 | 5.75 µM
